- ASSAY_OVERVIEW: Cytotoxicity against African green monkey Vero cells assessed as cell viability incubated for 48 hrs by MTT assay
- Type: toxicity, cell-based
- ASSAY_CONDITIONS: chlorocebus sabaeus
CC50 values by entry
MEASURED_QUANTITY: CC50 (µM)

{"RECORD_SMILES": "O=C(NNC(=O)c1cc2cc(Cl)ccc2s1)c1ccc([N+](=O)[O-])o1", "MEASURED_QUANTITY": "CC50", "RESULT_UNITS": "µM", "RELATION": ">", "MEASUREMENT": 137}
{"RECORD_SMILES": "O=C(NNC(=O)c1ccc([N+](=O)[O-])o1)c1cc2ccccc2[nH]1", "MEASURED_QUANTITY": "CC50", "RESULT_UNITS": "µM", "RELATION": ">", "MEASUREMENT": 160}
{"RECORD_SMILES": "O=C(NNC(=O)c1sc2ccccc2c1Cl)c1ccc([N+](=O)[O-])o1", "MEASURED_QUANTITY": "CC50", "RESULT_UNITS": "µM", "RELATION": "=", "MEASUREMENT": 68}
{"RECORD_SMILES": "O=C(NNC(=O)c1cc2ccc(Cl)cc2s1)c1ccc([N+](=O)[O-])o1", "MEASURED_QUANTITY": "CC50", "RESULT_UNITS": "µM", "RELATION": ">", "MEASUREMENT": 136}
{"RECORD_SMILES": "O=C(NNC(=O)c1cc2c(Cl)cccc2s1)c1ccc([N+](=O)[O-])o1", "MEASURED_QUANTITY": "CC50", "RESULT_UNITS": "µM", "RELATION": "=", "MEASUREMENT": 136}
{"RECORD_SMILES": "O=C(NNC(=O)c1sc2cc(C(F)(F)F)ccc2c1Cl)c1ccc([N+](=O)[O-])o1", "MEASURED_QUANTITY": "CC50", "RESULT_UNITS": "µM", "RELATION": "=", "MEASUREMENT": 110}
{"RECORD_SMILES": "O=C(NNC(=O)c1cc2cccnc2s1)c1ccc([N+](=O)[O-])o1", "MEASURED_QUANTITY": "CC50", "RESULT_UNITS": "µM", "RELATION": "=", "MEASUREMENT": 150}
{"RECORD_SMILES": "O=C(N/N=C/c1cc2ccccc2s1)c1ccc([N+](=O)[O-])o1", "MEASURED_QUANTITY": "CC50", "RESULT_UNITS": "µM", "RELATION": "=", "MEASUREMENT": 39}
{"RECORD_SMILES": "O=C(NNC(=O)c1sc2cccc(Cl)c2c1Cl)c1ccc([N+](=O)[O-])o1", "MEASURED_QUANTITY": "CC50", "RESULT_UNITS": "µM", "RELATION": ">", "MEASUREMENT": 124}
{"RECORD_SMILES": "CC(C)(NC(=O)c1ccc([N+](=O)[O-])o1)c1cc2ccccc2s1", "MEASURED_QUANTITY": "CC50", "RESULT_UNITS": "µM", "RELATION": "=", "MEASUREMENT": 38}
{"RECORD_SMILES": "O=C(NNC(=O)c1sc2c(Cl)cccc2c1Cl)c1ccc([N+](=O)[O-])o1", "MEASURED_QUANTITY": "CC50", "RESULT_UNITS": "µM", "RELATION": ">", "MEASUREMENT": 120}
{"RECORD_SMILES": "O=C(NNC(=O)c1cc2cccc(Cl)c2s1)c1ccc([N+](=O)[O-])o1", "MEASURED_QUANTITY": "CC50", "RESULT_UNITS": "µM", "RELATION": "=", "MEASUREMENT": 68}
{"RECORD_SMILES": "O=C(NNC(=O)c1nc2ccccc2s1)c1ccc([N+](=O)[O-])o1", "MEASURED_QUANTITY": "CC50", "RESULT_UNITS": "µM", "RELATION": "=", "MEASUREMENT": 150}
{"RECORD_SMILES": "O=C(NNC(=O)c1sc2cc(F)ccc2c1Cl)c1ccc([N+](=O)[O-])o1", "MEASURED_QUANTITY": "CC50", "RESULT_UNITS": "µM", "RELATION": ">", "MEASUREMENT": 130}
{"RECORD_SMILES": "O=C(NNC(=O)c1cc2cc(C(F)(F)F)cc(Cl)c2s1)c1ccc([N+](=O)[O-])o1", "MEASURED_QUANTITY": "CC50", "RESULT_UNITS": "µM", "RELATION": ">", "MEASUREMENT": 110}
{"RECORD_SMILES": "O=C(NNC(=O)c1sc2cc(Cl)ccc2c1Cl)c1ccc([N+](=O)[O-])o1", "MEASURED_QUANTITY": "CC50", "RESULT_UNITS": "µM", "RELATION": ">", "MEASUREMENT": 120}
{"RECORD_SMILES": "O=C(NNC(=O)c1cc2c(s1)CCCC2)c1ccc([N+](=O)[O-])o1", "MEASURED_QUANTITY": "CC50", "RESULT_UNITS": "µM", "RELATION": "=", "MEASUREMENT": 37}
{"RECORD_SMILES": "O=C(NNC(=O)c1sc2cc(Cl)ccc2c1Cl)c1ccc(Cl)o1", "MEASURED_QUANTITY": "CC50", "RESULT_UNITS": "µM", "RELATION": "=", "MEASUREMENT": 128}
